Molecular target: human LPAR1 (Homo sapiens, UniProt Q92633)
Sequence (Q92633 whole entry): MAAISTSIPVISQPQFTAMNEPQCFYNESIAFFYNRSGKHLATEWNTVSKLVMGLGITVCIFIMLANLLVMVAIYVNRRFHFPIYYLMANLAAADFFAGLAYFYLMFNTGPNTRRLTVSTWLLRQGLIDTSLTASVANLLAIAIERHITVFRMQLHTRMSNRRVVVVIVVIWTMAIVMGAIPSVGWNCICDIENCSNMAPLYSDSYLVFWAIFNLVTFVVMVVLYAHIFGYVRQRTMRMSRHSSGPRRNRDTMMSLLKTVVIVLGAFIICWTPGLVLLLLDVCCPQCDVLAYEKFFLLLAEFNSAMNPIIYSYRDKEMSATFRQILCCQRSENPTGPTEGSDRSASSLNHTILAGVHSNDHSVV
Experiment: In vitro functional assay of lysophosphatidic acid receptor 1 activity (calcium flux)
Format: cell-based
Conditions: B103 cells stably expressing human LPAR1; calcium flux (Fluo-4 NW) after lysophosphatidic acid (18:1) at EC80; 100 pM to 10 μM; read-out: LPAR1 IC50
pIC50: −log10 of the molar value.
// pIC50 lookup, one value per entry
Attribute measured: pIC50

Molecule	Result
CC(=O)N1CCC2(CC1)CC(N(C(=O)Nc1ccc(C)nc1OC(F)F)c1ccccc1C(C)C)C2	< 6.00
CCOC(=O)N1CC(N(C(=O)Nc2ccc(C)nc2OC(F)F)c2ccccc2C(C)C)C1	7.00 to 8.00
Cc1ccc(NC(=O)N(c2ccccc2C(C)C)[C@H]2CCN(C(=O)OC(C)(C)C)C2)c(OC(F)F)n1	6.00 to 7.00
Cc1ccc(NC(=O)N(c2ccccc2C(C)C)C2CN(C(=O)OC(C)(C)C)C2)c(OC(F)F)n1	6.00 to 7.00
CC(C)c1ccccc1N(C(=O)Nc1cc(F)c(Cl)cc1OCC(F)F)[C@H]1C[C@@H](CC(=O)O)C1	> 8.00
COc1ccc(NC(=O)N(c2ccccc2C(C)C)[C@H]2CC[C@@](O)(C(F)(F)C(=O)O)CC2)c(OC(F)F)n1	> 8.00
COc1ccc(NC(=O)N(c2ccccc2C(C)C)[C@@H]2CCN(C3COC3)C2)c(OC(F)F)n1	6.00 to 7.00
COc1ccc(NC(=O)N(c2ccccc2C(C)C)[C@@H]2C[C@@H]3CC[C@H]2N3C(C)=O)c(OC(F)F)n1 (racemic)	6.00 to 7.00
CC(=O)N1CC2(CCC(N(C(=O)Nc3ccc(C)nc3OC(F)F)c3ccccc3C(C)C)CC2)C1	6.00 to 7.00
COc1ccc(NC(=O)N(c2ccccc2C(C)C)[C@H]2CC[C@H](C(=O)O)CC2)c(O)n1	< 6.00
COc1cc(Cl)c(F)cc1NC(=O)N(c1ccccc1C(C)C)[C@H]1CC[C@H](C(=O)O)CC1	> 8.00
COc1cc(C(F)F)ncc1NC(=O)N(c1ccccc1C(C)C)[C@H]1CC[C@H](C(=O)O)CC1	6.00 to 7.00
CC(C)c1ccccc1N(C(=O)Nc1ncc(Cl)cc1OC(F)F)[C@H]1CC[C@H](C(=O)O)CC1	7.00 to 8.00
CC(C)Oc1cc(C(F)F)ncc1NC(=O)N(c1ccccc1C(C)C)[C@H]1CC[C@H](C(=O)O)CC1	6.00 to 7.00
Cc1ccc(NC(=O)N(c2ccccc2C(C)C)[C@H]2CC[C@H](S(C)(=O)=O)CC2)c(OC(F)F)n1	6.00 to 7.00
COc1ccc(NC(=O)N(c2ccccc2C(C)C)[C@H]2CC[C@@H](C(=O)O)CC2)c(OC(F)F)n1	6.00 to 7.00
Cc1ccc(NC(=O)N(c2ccccc2C(C)C)[C@H]2CC[C@](O)(C(F)(F)C(=O)O)CC2)c(OC(F)F)n1	> 8.00
Cc1ccc(NC(=O)N(c2ccccc2C(C)C)C2CC3(C2)CN(S(C)(=O)=O)C3)c(OC(F)F)n1	6.00 to 7.00
Cc1ccc(NC(=O)N(c2ccccc2C(C)C)[C@H]2CC[C@@H](C(=O)O)C2)c(OC(F)F)n1	7.00 to 8.00
COc1cc(Br)c(F)cc1NC(=O)N(c1ccccc1C(C)C)[C@H]1CC[C@H](C(=O)O)CC1	> 8.00

Reference source for all entries: patent US20250034110A1
